Target System: GLP-1 receptor (GLP-1R), primary cAMP assay (human, UniProt P43220 24-463)
Protocol Text: cell-based or functional assay
Starred links: 1 amine or outer side, 2 acyl side, 3 side chain; linkers in the order of their positions; H or OH if unused. Non-standard residues stand in square brackets, D forms with d. Groups on a side chain read outwards from the residue. Primed or numbered codes have the meaning given here. No end group written: not given here. *: point of attachment. γGlu = O=C(O)[C@H](CCC(=O)[*:2])N[*:1]; Palmitoyl = CCCCCCCCCCCCCCCC(=O)*; αMeF = C[C@](N)(Cc1ccccc1)C(=O)O; αMeK = C[C@](N)(CCCCN)C(=O)O; αMeS = C[C@](N)(CO)C(=O)O; PEG2′ = not defined here; Aib = CC(C)(N)C(=O)O
Property: Primary assay EC50 (cAMP), n2 (pM)

I: H[Aib]EGS[αMeF]TSDV[αMeS]SYK([PEG2′-PEG2′-γGlu-Palmitoyl])EGEAA[αMeK]EFIAWK([PEG2′-PEG2′-γGlu-Palmitoyl])VEGG-NH2 [SEQ ID NO: 273]
II: H[Aib]EGS[αMeF]TSDK([PEG2′-PEG2′-γGlu-Palmitoyl])SSYLEGEAA[αMeK]EFIK([PEG2′-PEG2′-γGlu-Palmitoyl])WVVEGG-NH2 [SEQ ID NO: 259]
Looking only at measured Primary assay EC50 (cAMP), n2, which entry is lower, I or II ? // caller expects the label of the chosen entry II
(II: 287 pM, I: 783 pM)
